Data origin, for the record: patent US9079907B2

Emax values by entry
Tested System: serotonin 5-HT2C receptor (isoform type VSV, stably expressing CHO cell) (Homo sapiens, UniProt P28335, I156V/I160V/N158S)
Sequence (P28335 33-458 I156V/N158S/I160V limits assumed): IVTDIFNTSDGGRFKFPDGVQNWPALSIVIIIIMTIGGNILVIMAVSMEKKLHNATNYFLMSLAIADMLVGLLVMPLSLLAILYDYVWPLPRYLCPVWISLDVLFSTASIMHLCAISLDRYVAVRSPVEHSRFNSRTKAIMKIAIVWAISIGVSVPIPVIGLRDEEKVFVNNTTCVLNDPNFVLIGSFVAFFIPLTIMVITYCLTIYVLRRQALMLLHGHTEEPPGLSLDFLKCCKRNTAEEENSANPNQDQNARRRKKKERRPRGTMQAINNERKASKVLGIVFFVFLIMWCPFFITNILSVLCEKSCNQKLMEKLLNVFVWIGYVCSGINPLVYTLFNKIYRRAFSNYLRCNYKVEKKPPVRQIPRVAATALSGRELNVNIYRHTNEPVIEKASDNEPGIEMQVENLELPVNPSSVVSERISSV
Assay Name: cell-based
Protocol Conditions: CHO, read-out: ratio to maximum response by 5-HT; read-out: ratio to maximum response by 5-HT (1 μM)
Structures can show the parent of a compound that is named as a salt.
Please state the figure in %; there is no need to write the unit.

c1cc2c(nc1N1CCCCCC1)OCCNC2 [Example 46, bis(trifluoroacetate)] :: 100
c1cc2c(nc1C1CCCC1)OCCNC2 [Example 212, dihydrochloride] :: 91.9
c1cc2c(nc1N1CCOCC1)OCCNC2 [Example 147, monohydrochloride] :: 93.9
c1cc2c(nc1N1CCCC1)OCCNC2 [Example 43, bis(trifluoroacetate)] :: 97

Now examine the next entry.
[ask] Find the measured Emax of CSc1ccc(-c2ccc3c(n2)OCCNC3)cc1 [Example 96, bis(trifluoroacetate)] and report it.
[reply] 90.3

====

Emax values by entry
Tested System: serotonin 5-HT2C receptor (isoform type VSV, stably expressing CHO cell) (Homo sapiens, UniProt P28335, I156V/I160V/N158S)
Assay Name: cell-based
Protocol Conditions: CHO, read-out: ratio to maximum response by 5-HT; read-out: ratio to maximum response by 5-HT (1 μM)
Structures can show the parent of a compound that is named as a salt.
Please state the figure in %; there is no need to write the unit.

Worked examples, 2 molecules total:
C[C@H]1CNCc2ccc(N3CCOCC3)nc2O1 :: 94.2
c1ccc(CCN2CCN(c3ccc4c(n3)OCCNC4)CC2)cc1 [Example 58, tris(trifluoroacetate)] :: 87.1

[ask] Find the measured Emax of c1cc2c(nc1N1CCCCC1)OCCNC2 and report it.
[reply] 80.8

[ask] Find the measured Emax of COC(=O)c1ccc(-c2ccc3c(n2)OCCNC3)cc1 [Example 102, bis(trifluoroacetate)] and report it.
[reply] 91.3

[ask] Find the measured Emax of CC1CCCCN1c1ccc2c(n1)OCCNC2 (centres unmarked) [Example 49, bis(trifluoroacetate)] and report it.
[reply] 89.5

[ask] Find the measured Emax of CC1CNCc2ccc(N3CCCCC3)nc2O1 (centres unmarked) and report it.
[reply] 111

[ask] Find the measured Emax of CC(C)c1ccc2c(n1)OCCNC2 [Example 205, dihydrochloride] and report it.
[reply] 93.5

[ask] Find the measured Emax of CC1CCC(C)N1c1ccc2c(n1)OCCNC2 (centres unmarked) and report it.
[reply] 85.4

[ask] Find the measured Emax of CC(C)(C)OC(=O)N1CCN(c2ccc3c(n2)OCCNC3)CC1 and report it.
[reply] 99.4

====

Emax values by entry
Tested System: serotonin 5-HT2C receptor (isoform type VSV, stably expressing CHO cell) (Homo sapiens, UniProt P28335, I156V/I160V/N158S)
Assay Name: cell-based
Protocol Conditions: CHO, read-out: ratio to maximum response by 5-HT; read-out: ratio to maximum response by 5-HT (1 μM)
Structures can show the parent of a compound that is named as a salt.
Please state the figure in %; there is no need to write the unit.

Worked examples, 8 molecules total:
CCN(CC)c1ccc2c(n1)OCCNC2 [Example 44, bis(trifluoroacetate)] :: 95.1
C[C@@H]1CNCc2ccc(N3CCOCC3)nc2O1 :: 105
CC(C)N(C)c1ccc2c(n1)OCCNC2 :: 91.5
c1cc2c(nc1C1CC1)OCCNC2 [Example 210, dihydrochloride] :: 108
CC1CNCc2ccc(N3CCN(C(=O)OC(C)(C)C)CC3)nc2O1 (centres unmarked) :: 109
Clc1ccc(-c2ccc3c(n2)OCCNC3)cc1 :: 91.1
c1ccc(CCCCN2CCN(c3ccc4c(n3)OCCNC4)CC2)cc1 [Example 67, tris(trifluoroacetate)] :: 124
Fc1ccc(-c2ccc3c(n2)OCCNC3)cc1 [Example 81, bis(trifluoroacetate)] :: 92.1

[ask] Find the measured Emax of FC(F)(F)Oc1ccc(-c2ccc3c(n2)OCCNC3)cc1 [Example 104, bis(trifluoroacetate)] and report it.
[reply] 94.6

[ask] Find the measured Emax of CC1CNCc2ccc(N3CCOCC3)nc2O1 (centres unmarked) and report it.
[reply] 107

[ask] Find the measured Emax of c1cc(-c2ccc3c(n2)OCCNC3)co1 [Example 112, bis(trifluoroacetate)] and report it.
[reply] 93

[ask] Find the measured Emax of c1cc2c(nc1C1CCC1)OCCNC2 [Example 211, dihydrochloride] and report it.
[reply] 98

[ask] Find the measured Emax of CC(C)(C)OC(=O)N1CCN(c2nc3c(cc2F)CNCCO3)CC1 and report it.
[reply] 110

[ask] Find the measured Emax of CCC(C)N(C)c1ccc2c(n1)OCCNC2 (centres unmarked) [Example 171, monohydrobromide] and report it.
[reply] 99.6
